B1: HHH_rd1_0493 (parent)
chain: RDEDEKEKIKEALKRGNEDKAKEIAKRANVSPEEYERLRKEAE

Variants of: B1
Experiment description: folding stability dG (cDNA display proteolysis); higher = more stable
Measurement context: PBS, room temperature
Assignment: determine reported folding stability dG for the given variants.
Only the number, expressed in kcal/mol, is required.

[Q] Indicate the recorded folding stability dG value for this variant: "A25S"
[A] 1.74

[Q] Indicate the recorded folding stability dG value for this variant: "K22P"
[A] 0.613

[Q] Indicate the recorded folding stability dG value for this variant: "E5W"
[A] 4.45

[Q] Indicate the recorded folding stability dG value for this variant: "E34R"
[A] -0.261

[Q] Indicate the recorded folding stability dG value for this variant: "R1T"
[A] 3.28

[Q] Indicate the recorded folding stability dG value for this variant: "A42M"
[A] 2.51

[Q] Indicate the recorded folding stability dG value for this variant: "L38D"
[A] 0.129

[Q] Indicate the recorded folding stability dG value for this variant: "K20N"
[A] 2.27

[Q] Indicate the recorded folding stability dG value for this variant: "A21P"
[A] 0.448

[Q] Indicate the recorded folding stability dG value for this variant: "R39S"
[A] 2.1

[Q] Indicate the recorded folding stability dG value for this variant: "I24F"
[A] 1.48

[Q] Indicate the recorded folding stability dG value for this variant: "L38K"
[A] 0.318

[Q] Indicate the recorded folding stability dG value for this variant: "E18I"
[A] 3.25

[Q] Indicate the recorded folding stability dG value for this variant: "E43Y"
[A] 3.29

[Q] Indicate the recorded folding stability dG value for this variant: "K22T"
[A] 2.24

[Q] Indicate the recorded folding stability dG value for this variant: "K22E"
[A] 2.26

[Q] Indicate the recorded folding stability dG value for this variant: "K6I"
[A] 3.24

[Q] Indicate the recorded folding stability dG value for this variant: "A12H"
[A] 2.85

[Q] Indicate the recorded folding stability dG value for this variant: "K14L"
[A] 2.67

[Q] Indicate the recorded folding stability dG value for this variant: "V30E"
[A] 0.435

[Q] Indicate the recorded folding stability dG value for this variant: "D2P"
[A] 3.06

[Q] Indicate the recorded folding stability dG value for this variant: "E36Y"
[A] 1.52

[Q] Indicate the recorded folding stability dG value for this variant: "E41T"
[A] 1.97

[Q] Indicate the recorded folding stability dG value for this variant: "R15Q"
[A] 3.39

[Q] Indicate the recorded folding stability dG value for this variant: "K22Y"
[A] 2.11

[Q] Indicate the recorded folding stability dG value for this variant: "P32R"
[A] 2.73

[Q] Indicate the recorded folding stability dG value for this variant: "E41Y"
[A] 1.63

[Q] Indicate the recorded folding stability dG value for this variant: "E34A"
[A] 1.69

[Q] Indicate the recorded folding stability dG value for this variant: "K8C"
[A] 2.37

[Q] Indicate the recorded folding stability dG value for this variant: "D4H"
[A] 2.82

[Q] Indicate the recorded folding stability dG value for this variant: "R1H"
[A] 3.11

[Q] Indicate the recorded folding stability dG value for this variant: "R39Y"
[A] 1.87

[Q] Indicate the recorded folding stability dG value for this variant: "G16N"
[A] 1.91

[Q] Indicate the recorded folding stability dG value for this variant: "R1K"
[A] 3.12

[Q] Indicate the recorded folding stability dG value for this variant: "E7V"
[A] 2.97

[Q] Indicate the recorded folding stability dG value for this variant: "K10Q"
[A] 0.854

[Q] Indicate the recorded folding stability dG value for this variant: "K40S"
[A] 2.9

[Q] Indicate the recorded folding stability dG value for this variant: "A42D"
[A] 0.965

[Q] Indicate the recorded folding stability dG value for this variant: "K8A"
[A] 3.29

[Q] Indicate the recorded folding stability dG value for this variant: "R1S"
[A] 3.15

[Q] Indicate the recorded folding stability dG value for this variant: "S31T"
[A] 3.03

[Q] Indicate the recorded folding stability dG value for this variant: "E5G"
[A] 2.08

[Q] Indicate the recorded folding stability dG value for this variant: "E7Y"
[A] 2.85

[Q] Indicate the recorded folding stability dG value for this variant: "K20I"
[A] 3.16

[Q] Indicate the recorded folding stability dG value for this variant: "G16D"
[A] 1.47

[Q] Indicate the recorded folding stability dG value for this variant: "E5L"
[A] 3.6

[Q] Indicate the recorded folding stability dG value for this variant: "A28Y"
[A] 3.02

[Q] Indicate the recorded folding stability dG value for this variant: "E33K"
[A] 2.04

[Q] Indicate the recorded folding stability dG value for this variant: "E23A"
[A] 2.87

[Q] Indicate the recorded folding stability dG value for this variant: "R15M"
[A] 3.21

[Q] Indicate the recorded folding stability dG value for this variant: "E7Q"
[A] 3.13

[Q] Indicate the recorded folding stability dG value for this variant: "E18A"
[A] 2.59

[Q] Indicate the recorded folding stability dG value for this variant: "K10D"
[A] 0.644

[Q] Indicate the recorded folding stability dG value for this variant: "K8Y"
[A] 2.09

[Q] Indicate the recorded folding stability dG value for this variant: "G16L"
[A] 1.39

[Q] Indicate the recorded folding stability dG value for this variant: "R37G"
[A] 1.77

[Q] Indicate the recorded folding stability dG value for this variant: "K10P"
[A] 0.064

[Q] Indicate the recorded folding stability dG value for this variant: "P32H"
[A] 2.7
